- Study system: NKCC2 (Homo sapiens, UniProt Q13621)
- Construct: expressed in transfected cells; host or cells: HEK293
- Sequence (Q13621 whole entry, species assumed): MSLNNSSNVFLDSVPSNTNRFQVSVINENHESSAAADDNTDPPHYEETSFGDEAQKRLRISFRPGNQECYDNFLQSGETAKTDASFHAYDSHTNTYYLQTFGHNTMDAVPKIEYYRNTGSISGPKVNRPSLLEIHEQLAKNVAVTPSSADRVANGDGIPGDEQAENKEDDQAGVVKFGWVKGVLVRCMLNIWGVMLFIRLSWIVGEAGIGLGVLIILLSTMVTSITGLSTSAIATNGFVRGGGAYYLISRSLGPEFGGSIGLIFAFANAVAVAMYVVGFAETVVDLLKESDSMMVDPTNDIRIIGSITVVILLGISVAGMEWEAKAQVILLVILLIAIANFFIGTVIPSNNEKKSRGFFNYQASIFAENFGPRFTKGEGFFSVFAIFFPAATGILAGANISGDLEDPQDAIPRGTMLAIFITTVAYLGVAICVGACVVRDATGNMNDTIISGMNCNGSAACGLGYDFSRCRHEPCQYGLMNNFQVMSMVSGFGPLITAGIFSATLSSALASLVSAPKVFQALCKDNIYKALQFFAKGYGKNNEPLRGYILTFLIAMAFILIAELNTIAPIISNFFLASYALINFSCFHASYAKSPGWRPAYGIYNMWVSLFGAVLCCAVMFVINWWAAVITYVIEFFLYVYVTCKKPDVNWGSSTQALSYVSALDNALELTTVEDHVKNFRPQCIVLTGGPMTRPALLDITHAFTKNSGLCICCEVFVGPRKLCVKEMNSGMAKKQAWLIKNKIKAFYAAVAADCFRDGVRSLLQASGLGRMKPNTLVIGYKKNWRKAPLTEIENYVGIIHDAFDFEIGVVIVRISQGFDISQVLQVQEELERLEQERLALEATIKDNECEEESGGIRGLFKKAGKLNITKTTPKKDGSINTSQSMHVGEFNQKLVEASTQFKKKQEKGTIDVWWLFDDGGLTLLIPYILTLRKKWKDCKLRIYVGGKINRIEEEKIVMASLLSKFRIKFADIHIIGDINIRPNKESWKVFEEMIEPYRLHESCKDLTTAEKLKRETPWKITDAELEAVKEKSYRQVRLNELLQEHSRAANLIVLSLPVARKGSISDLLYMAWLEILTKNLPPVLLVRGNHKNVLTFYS
- Test details: Thallium-based assay in NKCC2-transfected HEK293 cells
- Type: cell-based
- Condition info: 10 μM; NKCC2-transfected HEK293; Table 2
Property: inhibition at 10 µM; scope: individual compounds
Property name: inhibition at 10 µM

1) CCCCCCCCNc1ccc(C(=O)O)cc1S(N)(=O)=O | 0%
2) CCCCCCCCNc1cc(Cl)c(C(=O)O)cc1S(N)(=O)=O | 16%
3) CCCCNc1ccc([N+](=O)[O-])cc1S(=O)(=O)NC | 0%
4) CCCCCCCCNc1ccc([N+](=O)[O-])cc1S(=O)(=O)NC | 0%
5) CCCCCCCCNc1ccc([N+](=O)[O-])cc1S(N)(=O)=O [Compound 1.8, 5-nitro-2-(octylamino)benzenesulfonamide] | 10%
6) CC(C)(C)CCNc1ccc([N+](=O)[O-])cc1S(N)(=O)=O | 0%
7) CCCCNc1cc(Cl)c(C(=O)O)cc1S(N)(=O)=O | 0%
8) CCCCCCNc1ccc([N+](=O)[O-])cc1S(N)(=O)=O | 10%

Data origin, for the record: patent US20220184008A1
